All values here come from patent US20240150377A1.

# TGT: CFTR (Homo sapiens, UniProt P13569, DEL508-508)
# Construct: endogenous in cells; host or cells: primary human bronchial epithelial cells from CF subjects (F508del/MF-HBE), differentiated at air-liquid interface
# Sequence (P13569 with tags, fused parts or gaps DEL508-508): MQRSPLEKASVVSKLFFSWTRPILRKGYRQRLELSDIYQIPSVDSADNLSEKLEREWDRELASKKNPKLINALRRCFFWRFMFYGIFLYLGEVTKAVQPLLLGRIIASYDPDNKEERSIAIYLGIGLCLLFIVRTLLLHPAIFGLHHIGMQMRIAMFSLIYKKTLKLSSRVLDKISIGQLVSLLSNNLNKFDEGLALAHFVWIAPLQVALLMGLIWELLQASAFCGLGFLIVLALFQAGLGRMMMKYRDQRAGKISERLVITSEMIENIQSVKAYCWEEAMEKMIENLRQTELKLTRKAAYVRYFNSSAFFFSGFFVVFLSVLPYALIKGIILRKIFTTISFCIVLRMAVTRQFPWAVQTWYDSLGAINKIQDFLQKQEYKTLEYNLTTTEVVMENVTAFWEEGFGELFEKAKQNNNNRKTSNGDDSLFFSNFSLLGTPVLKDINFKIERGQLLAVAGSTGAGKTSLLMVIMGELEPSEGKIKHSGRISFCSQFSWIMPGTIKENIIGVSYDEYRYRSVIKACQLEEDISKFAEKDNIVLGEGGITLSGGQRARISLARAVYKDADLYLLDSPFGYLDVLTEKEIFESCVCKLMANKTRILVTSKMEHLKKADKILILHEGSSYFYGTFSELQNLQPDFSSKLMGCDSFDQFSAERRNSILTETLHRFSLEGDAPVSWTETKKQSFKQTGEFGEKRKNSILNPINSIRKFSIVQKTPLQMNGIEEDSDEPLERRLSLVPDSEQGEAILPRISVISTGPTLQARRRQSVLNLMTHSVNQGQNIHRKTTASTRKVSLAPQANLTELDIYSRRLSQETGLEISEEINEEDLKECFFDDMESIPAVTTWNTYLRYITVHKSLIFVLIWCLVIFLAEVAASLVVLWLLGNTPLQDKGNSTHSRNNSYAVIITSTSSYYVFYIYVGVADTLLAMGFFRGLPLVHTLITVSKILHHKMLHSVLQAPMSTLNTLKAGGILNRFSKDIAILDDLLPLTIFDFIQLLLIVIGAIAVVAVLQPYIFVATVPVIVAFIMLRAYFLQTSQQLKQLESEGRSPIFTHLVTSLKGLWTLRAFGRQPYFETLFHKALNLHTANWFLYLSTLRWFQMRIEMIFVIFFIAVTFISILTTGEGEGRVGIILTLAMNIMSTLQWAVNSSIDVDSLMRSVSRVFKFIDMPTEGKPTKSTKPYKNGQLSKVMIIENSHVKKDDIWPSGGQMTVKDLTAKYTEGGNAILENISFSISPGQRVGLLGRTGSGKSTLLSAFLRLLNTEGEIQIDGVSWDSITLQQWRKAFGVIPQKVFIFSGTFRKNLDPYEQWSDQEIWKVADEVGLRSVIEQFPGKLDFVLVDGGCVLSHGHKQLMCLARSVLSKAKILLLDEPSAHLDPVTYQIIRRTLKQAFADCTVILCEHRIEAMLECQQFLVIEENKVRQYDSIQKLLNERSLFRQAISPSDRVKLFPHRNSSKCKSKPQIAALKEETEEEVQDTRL
# TEST DESCRIPTION: HBE assay: Ussing chamber assay of CFTR-mediated short-circuit currents
# Type: cell-based
# SETTINGS: HBE assay; 10 μM; read-out: HBE Activity at 10 μM (%)
RECORDED ENDPOINT: activation at 10 µM

Kindly state the measured activation at 10 µM obtained for CCCOc1cnc(CN2C(=O)c3cccc(c3)S(=O)(=O)Nc3nc(cc(-c4c(C)cccc4C)n3)OC[C@H]2CC2CCC2)nc1 [Compound 1522] with CFTR (Homo sapiens, UniProt P13569, DEL508-508).
> 60%

Kindly state the measured activation at 10 µM obtained for Cc1cccc(C)c1-c1cc2nc(n1)NS(=O)(=O)c1cccc(c1)C(=O)N(Cc1ccc3cc(C4CC4)n(C)c3n1)[C@H](CC(C)(C)C)CO2 [Compound 1304] with CFTR (Homo sapiens, UniProt P13569, DEL508-508).
> 60%

Kindly state the measured activation at 10 µM obtained for CCC1(CO)CCCN1c1cccc(CN2C(=O)c3cccc(c3)S(=O)(=O)Nc3nc(cc(-c4c(C)cccc4C)n3)OC[C@H]2CC(C)(C)C)n1 (stereo in doubt) [Compound 1458] with CFTR (Homo sapiens, UniProt P13569, DEL508-508).
> 60%

Kindly state the measured activation at 10 µM obtained for Cc1cccc(C)c1-c1cc2nc(n1)NS(=O)(=O)c1cccc(c1)C(=O)N(Cc1ncc(OC(C)C)cn1)[C@H](CC(C)(C)F)CO2 [Compound 1308] with CFTR (Homo sapiens, UniProt P13569, DEL508-508).
> 60%

----------
Please go through the items and note down their Emax.
# TGT: CFTR (Homo sapiens, UniProt P13569, DEL508-508)
# Construct: endogenous in cells; host or cells: primary human bronchial epithelial cells from CF subjects (F508del/MF-HBE), differentiated at air-liquid interface
# TEST DESCRIPTION: HBE assay: Ussing chamber assay of CFTR-mediated short-circuit currents
# Type: cell-based
# SETTINGS: HBE assay; read-out: HBE Max activity (%)

Query (molecule): Cc1cccc(C)c1-c1cc2nc(n1)NS(=O)(=O)c1cccc(c1)C(=O)N(Cc1cncc(NC3CCOC3)n1)[C@H](CC(C)(C)C)CO2 (stereo partly drawn) ; field requested: Emax
> 60%

Query (molecule): `Cc1cccc(C)c1-c1cc2nc(n1)NS(=O)(=O)c1cccc(c1)C(=O)N(Cc1ncc(OC(C)C)cn1)[C@H](CCC(C)(C)C)CO2` ; field requested: Emax
> 60%

Query (molecule): `Cc1cccc(C)c1-c1cc2nc(n1)NS(=O)(=O)c1cccc(c1)C(=O)N(Cc1ncc(N3CCC(F)(F)C3)cn1)[C@H](CC1CC1)CO2` ; field requested: Emax
> 60%

----------
# TGT: CFTR (Homo sapiens)
# TEST DESCRIPTION: Membrane potential dye, Enteroid Assay B
# Type: cell-based
# SETTINGS: Table 8; chloride transport as % of triple combination control (Enteroid Assay B)
RECORDED ENDPOINT: Ent. B Max Activity

A selection of reference data follows.
INSERT INTO measurements (compound, tgt, measurement) VALUES
  ('Cc1cccc(C)c1-c1cc2nc(n1)NS(=O)(=O)c1cccc(c1)C(=O)N(CC1CC(C(C)(C)O)C1)[C@H](CC(C)(C)C)CO2 (stereo partly drawn)', 'CFTR (Homo sapiens)', '+++ (+++ is >60%)'),
  ('Cc1cccc(C)c1-c1cc2nc(n1)NS(=O)(=O)c1cccc(c1)C(=O)N(CC(C)(C)C)[C@H](CC(C)C)CO2', 'CFTR (Homo sapiens)', '++ (++ is 30-60%)'),
  ('Cc1cccc(C)c1-c1cc2nc(n1)NS(=O)(=O)c1cccc(c1)C(=O)N(Cc1ccc(C(=O)N(C)C)cn1)[C@H](CC(C)(C)C)CO2', 'CFTR (Homo sapiens)', '+++ (+++ is >60%)'),
  ('Cc1cccc(C)c1-c1cc2nc(n1)NS(=O)(=O)c1cc(nn1C)C(=O)N(Cc1ccc(C(C)(C)O)cc1)[C@H](CC(C)(C)C)CO2', 'CFTR (Homo sapiens)', '++ (++ is 30-60%)'),
  ('Cc1cccc(C)c1-c1cc2nc(n1)NS(=O)(=O)c1cccc(c1)C(=O)N(CC1CCC(C)(O)CC1)[C@H](CC(C)(C)C)CO2 (single isomer, unassigned) [Compound 150]', 'CFTR (Homo sapiens)', '+++ (+++ is >60%)');

Query (compound): Cc1cccc(C)c1-c1cc2nc(n1)NS(=O)(=O)c1cccc(c1)C(=O)N(C)CC(c1ccc(CC3(C(F)(F)F)CC3)cn1)O2 (single isomer, unassigned) [Compound 104] ; field requested: Ent. B Max Activity
+++ (+++ is >60%)

Query (compound): `COC(=O)Nc1ccc(CN2C(=O)c3cccc(c3)S(=O)(=O)Nc3nc(cc(-c4c(C)cccc4C)n3)OC[C@H]2CC(C)(C)C)cn1` ; field requested: Ent. B Max Activity
+++ (+++ is >60%)

Query (compound): `Cc1cccc(C)c1-c1cc2nc(n1)NS(=O)(=O)c1cccc(c1)CN(CCCCO)[C@H](CC(C)C)CO2` ; field requested: Ent. B Max Activity
+++ (+++ is >60%)

Query (compound): `Cc1cccc(C)c1-c1cc2nc(n1)NS(=O)(=O)c1cccc(c1)C(=O)N(CCCC(=O)N(C)C)[C@H](CC(C)C)CO2` ; field requested: Ent. B Max Activity
+++ (+++ is >60%)

Query (compound): `Cc1cccc(C)c1-c1cc2nc(n1)NS(=O)(=O)c1cccc(c1)C(=O)N(CCc1ccc(C(=O)N(C)C)cc1)[C@H](CC(C)(C)C)CO2` ; field requested: Ent. B Max Activity
+++ (+++ is >60%)

Query (compound): `Cc1cccc(C)c1-c1cc2nc(n1)NS(=O)(=O)c1cccc(c1)C(=O)N(Cc1cncnc1)[C@H](CC(C)(C)C)CO2` ; field requested: Ent. B Max Activity
+++ (+++ is >60%)

Query (compound): `Cc1cccc(C)c1-c1cc2nc(n1)NS(=O)(=O)c1cccc(c1)C(=O)N(CC(C)(C)O)[C@H](CC(C)C)CO2` ; field requested: Ent. B Max Activity
+++ (+++ is >60%)

----------
Please go through the items and note down their EC50.
# TGT: CFTR (Homo sapiens, UniProt P13569, DEL508-508)
# Construct: endogenous in cells; host or cells: primary human bronchial epithelial cells from CF subjects (F508del/MF-HBE), differentiated at air-liquid interface
# TEST DESCRIPTION: HBE assay: Ussing chamber assay of CFTR-mediated short-circuit currents
# Assay type: cell-based
# SETTINGS: HBE assay; read-out: HBE EC50

Query (compound): `Cc1cccc(C)c1-c1cc2nc(n1)NS(=O)(=O)c1cccc(c1)C(=O)N(Cc1nc(OCC(C)C)ccc1F)[C@H](CC(C)(C)C)CO2` ; field requested: EC50
< 1000 nM

Query (compound): `CC[C@@H](C)Oc1cnc(CN2C(=O)c3cccc(c3)S(=O)(=O)Nc3nc(cc(-c4c(C)cccc4C)n3)OC[C@H]2CC(C)C)nc1` ; field requested: EC50
< 1000 nM

Query (compound): Cc1cccc(C)c1-c1cc2nc(n1)NS(=O)(=O)c1cccc(c1)C(=O)N(Cc1cccc(N(CC3CCCO3)C(C)C)n1)[C@H](CC(C)(C)C)CO2 (stereo partly drawn) [Compound 1445] ; field requested: EC50
1000 to 3000 nM

Query (compound): `Cc1cccc(C)c1-c1cc2nc(n1)NS(=O)(=O)c1cccc(c1)C(=O)N(Cc1ccc(OC(F)(F)F)cn1)[C@H](CC(C)(C)C)CO2` ; field requested: EC50
< 1000 nM

Query (compound): `Cc1cccc(C)c1-c1cc2nc(n1)NS(=O)(=O)c1cccc(c1)C(=O)N(Cc1ncc(OC3CCCC3)cn1)[C@H](CC1CC1)CO2` ; field requested: EC50
< 1000 nM

Query (compound): `Cc1cccc(C)c1-c1cc2nc(n1)NS(=O)(=O)c1cccc(c1)C(=O)N(Cc1ncc(O[C@H](C)C(C)C)cn1)[C@H](CC(C)(C)C)CO2` ; field requested: EC50
< 1000 nM

----------
# TGT: CFTR (Homo sapiens, UniProt P13569)
# TEST DESCRIPTION: Membrane potential dye, Enteroid Assay B
# Assay type: cell-based
# SETTINGS: Table 8; chloride transport as % of triple combination control (Enteroid Assay B)
RECORDED ENDPOINT: Ent. B Max Activity

INSERT INTO results (compound, tgt, recorded_endpoint, measurement) VALUES
  ('CC(=O)N(C)CCN1C(=O)c2cccc(c2)S(=O)(=O)Nc2nc(cc(-c3c(C)cccc3C)n2)OC[C@H]1CC(C)C', 'CFTR (Homo sapiens, UniProt P13569)', 'Ent. B Max Activity', '+++ (+++ is >60%)'),
  ('Cc1cccc(C)c1-c1cc2nc(n1)NS(=O)(=O)c1cccc(c1)C(=O)N(CC1CCC(C)(O)CC1)[C@H](CC(C)(C)C)CO2 (single isomer, unassigned) [Compound 149]', 'CFTR (Homo sapiens, UniProt P13569)', 'Ent. B Max Activity', '+++ (+++ is >60%)');
